- Assay name: Plasma pharmacokinetics, noncompartmental, SAD/MAD trial
- Format: in vivo, human
- Applied conditions: human, in vivo, half‐life (relevant t1/2), overall summary, all doses
Quantity: half-life

// C=CC(=O)N1CCC(CNc2ncnc(N)c2-c2ccc(Oc3ccccc3)cc2)CC1 [evobrutinib] : half-life value = ~2 h
